# System: P-gp (MDR1)
# EXPERIMENT NOTES: MDR1-MDCK Efflux Ratio Assay
# Assay type: in vitro ADME
# CONDITION CONTEXT: dog, MDCK-MDR1, pH 7.4, MDR1-MDCK cells, 2 hr, pH 7.4; read-out: MDR1-MDCK Efflux Ratio (B-A/A-B)
efflux ratio at 2 h overview
Lab note: write the figure by itself, no unit.

INSERT INTO measurements (structure_smiles_string, readout_value) VALUES
  ('CC(=O)Nc1ncc(CN2C[C@H](Oc3cc(N4CCCC4)ncn3)C[C@@H]2C)s1', 25.5),
  ('CC(=O)Nc1nc(F)c(CN2C[C@H](Oc3ncc(Cl)cn3)C[C@@H]2C)s1', 3.6),
  ('CC(=O)Nc1nc(F)c(CN2CC[C@@H](Oc3cc(C)nc(C)c3)C2)s1', 18.9),
  ('CC(=O)Nc1ncc(CN2C[C@H](Oc3cc(C(F)F)ncn3)C[C@@H]2C)s1', 11.7),
  ('CC(=O)Nc1ncc(CN2CCC[C@H](Oc3cc(C)nc(C)c3)C2)s1', 35.3),
  ('CC(=O)Nc1ncc(CN2CCC[C@@H](Oc3ccc(F)cn3)C2)s1', 2.3);

Any idea what its efflux ratio at 2 h is? The compound is `CC(=O)Nc1ncc(CN2C[C@H](Oc3ccc(F)cn3)C[C@@H]2C)s1` 1.1

Field entry: `CC(=O)Nc1ncc(CN2C[C@H](Oc3cc(C)nc(C)n3)C[C@@H]2C)s1` 26.3

Field entry: `COc1cc(O[C@@H]2CCCN(Cc3sc(NC(C)=O)nc3F)C2)ncn1` 2.9

---

# System: P-gp (MDR1)
# EXPERIMENT NOTES: MDR1-MDCK Efflux Ratio Assay
# Assay type: in vitro ADME
# CONDITION CONTEXT: dog, MDCK-MDR1, pH 7.4, MDR1-MDCK cells, 2 hr, pH 7.4; read-out: MDR1-MDCK Efflux Ratio (B-A/A-B)
Classification field: enter 1 for efflux ratio at 2 h values not below 4, 0 for values below it.

Kindly determine if efflux ratio at 2 h recorded for CC(=O)Nc1nc(F)c(CN2C[C@H](Oc3cc(N4CCOCC4)ccn3)C[C@@H]2C)s1 [Example 1-143] is above or exactly 4. 1

Field entry: COc1ncnc(O[C@@H]2C[C@H](C)N(Cc3cnc(NC(C)=O)s3)C2)c1C [Example 1-71] 0

Field entry: CC(=O)Nc1ncc(CN2C[C@H](Oc3cnc(Cl)cc3C)C[C@@H]2C)s1 [Example 1-17] 1

Field entry: CC(=O)Nc1nc(F)c(CN2C[C@H](Oc3cc(C)nc(C)c3)C[C@@H]2C)s1 [Example 1-50] 1

Field entry: CC(=O)Nc1ncc(CN2C[C@H](Oc3ccc(F)c(C)n3)C[C@@H]2C)s1 [Example 1-15] 0

Field entry: COc1cc(O[C@@H]2CCN(Cc3sc(NC(C)=O)nc3F)C2)ncn1 [Example 1-28] 0

Field entry: CC(=O)Nc1nc(F)c(CN2C[C@H](Oc3ccc(F)cn3)C[C@@H]2C)s1 [Example 1-47] 0

Field entry: COc1cc(O[C@H]2CCCN(Cc3cnc(NC(C)=O)s3)C2)ncn1 [Example 1-41] 1

---

# ASSAY SYSTEM: Recombinant full length human OGA enzyme (Homo sapiens (Human))
# EXPERIMENT NOTES: OGA Enzyme Inhibition Biochemical Assay
# CONDITION CONTEXT: 1 nM OGA, 100 μM 4-MUGlcNAc, pH 6.4
IC50 overview

INSERT INTO results (compound, assay_system, assay_metric, readout_value) VALUES
  ('CC(=O)Nc1ncc(CN2C[C@H](Oc3cc(OCC(F)(F)F)ncn3)C[C@@H]2C)s1 [Example 1-77]', 'Recombinant full length human OGA enzyme (Homo sapiens (Human))', 'IC50', '< 1 nM'),
  ('[2H][C@@]1(Oc2cc(OC)ncn2)C[C@H](C)N(Cc2cnc(NC(C)=O)s2)C1 (single isomer, unassigned) [Example 1-163]', 'Recombinant full length human OGA enzyme (Homo sapiens (Human))', 'IC50', '< 1 nM');

# input for lookup
Recombinant full length human OGA enzyme (Homo sapiens (Human)) / IC50 / COc1cnc(O[C@@H]2C[C@H](C)N(Cc3cnc(NC(C)=O)s3)C2)cn1 [Example 1-73] : value? < 1 nM

---

IC50 overview
# ASSAY SYSTEM: Recombinant full length human OGA enzyme (Homo sapiens (Human))
# EXPERIMENT NOTES: OGA Enzyme Inhibition Biochemical Assay
# CONDITION CONTEXT: 1 nM OGA, 100 μM 4-MUGlcNAc, pH 6.4
# Method: Recombinant full length human OGA enzyme was purchased from Origene. 4-MUGlcNAc substrate was purchased from Sigma. All other reagents were purchased from Sigma or Fisher. Assay buffer consists of the McIlvaine buffer system, pH 6.4 (0.2M Na2HPO4 mixed with 0.1M citric acid) and 0.01% BSA. […] Reactions were incubated for 90 minutes at room temperature and quenched with 40 μl of 3M glycine, pH 10 and read on a Perkin Elmer Envision plate reader (Ex: 355 nm/Em: 460 nm). […]

INSERT INTO assay_data (compound, readout_value) VALUES
  ('CC(=O)Nc1ncc(CN2C[C@H](Oc3cc(NC4CCC4)ncn3)C[C@@H]2C)s1 [Example 1-134]', '< 1 nM');

Recombinant full length human OGA enzyme (Homo sapiens (Human)) / IC50 / COc1ccc(O[C@@H]2C[C@H](C)N(Cc3sc(NC(C)=O)nc3F)C2)nn1 [Example 1-84] : value? < 1 nM

Field entry: CC(=O)Nc1ncc(CN2C[C@H](Oc3cc(C)nc(C)c3)CC[C@@H]2C)s1 [Example 1-67] < 1 nM

---

pIC50 overview
# ASSAY SYSTEM: Recombinant full length human OGA enzyme (Homo sapiens (Human))
# EXPERIMENT NOTES: OGA Enzyme Inhibition Biochemical Assay
# CONDITION CONTEXT: 1 nM OGA, 100 μM 4-MUGlcNAc, pH 6.4
pIC50: −log10 of the molar value.

Solved cases (3 shown):
INSERT INTO assay_data (structure_smiles_string, readout_value) VALUES
  ('CC(=O)Nc1nc(F)c(CN2C[C@H](Oc3cc(F)ccn3)C[C@@H]2C)s1', '> 9.00'),
  ('COCCN(C)c1ccnc(O[C@@H]2C[C@H](C)N(Cc3sc(NC(C)=O)nc3F)C2)c1', '> 9.00'),
  ('CC(=O)Nc1nc(F)c(CN2C[C@H](Oc3cc(C)nc(C)c3)C[C@@H]2C)s1', '> 9.00');

# input for lookup
Any idea what its pIC50 is? The compound is `COc1cncc(O[C@@H]2C[C@H](C)N(Cc3cnc(NC(C)=O)s3)C2)n1` > 9.00

---

# EXPERIMENT NOTES: Rat Liver Microsome Stability Assay
# Assay type: in vitro ADME
# CONDITION CONTEXT: rat liver microsomes, 1 uM compound
ASSAY METRIC: RLM % Qh (%)
Number in %, nothing else.

INSERT INTO results (compound, unit_text, readout_value) VALUES
  ('CC(=O)Nc1nc(F)c(CN2C[C@H](Oc3ncc(Cl)cn3)C[C@@H]2C)s1 [Example 1-95]', '%', 72),
  ('CC(=O)Nc1nc(F)c(CN2C[C@H](Oc3ccnc(C)c3)C[C@@H]2C)s1 [Example 1-110]', '%', 39);

Any idea what its RLM % Qh (%) is? The compound is COc1ccc(O[C@@H]2C[C@H](C)N(Cc3sc(NC(C)=O)nc3F)C2)cn1 [Example 1-114] 69

---

# ASSAY SYSTEM: Recombinant full length human OGA enzyme (Homo sapiens (Human), UniProt O60502)
# Sequence (O60502 whole entry): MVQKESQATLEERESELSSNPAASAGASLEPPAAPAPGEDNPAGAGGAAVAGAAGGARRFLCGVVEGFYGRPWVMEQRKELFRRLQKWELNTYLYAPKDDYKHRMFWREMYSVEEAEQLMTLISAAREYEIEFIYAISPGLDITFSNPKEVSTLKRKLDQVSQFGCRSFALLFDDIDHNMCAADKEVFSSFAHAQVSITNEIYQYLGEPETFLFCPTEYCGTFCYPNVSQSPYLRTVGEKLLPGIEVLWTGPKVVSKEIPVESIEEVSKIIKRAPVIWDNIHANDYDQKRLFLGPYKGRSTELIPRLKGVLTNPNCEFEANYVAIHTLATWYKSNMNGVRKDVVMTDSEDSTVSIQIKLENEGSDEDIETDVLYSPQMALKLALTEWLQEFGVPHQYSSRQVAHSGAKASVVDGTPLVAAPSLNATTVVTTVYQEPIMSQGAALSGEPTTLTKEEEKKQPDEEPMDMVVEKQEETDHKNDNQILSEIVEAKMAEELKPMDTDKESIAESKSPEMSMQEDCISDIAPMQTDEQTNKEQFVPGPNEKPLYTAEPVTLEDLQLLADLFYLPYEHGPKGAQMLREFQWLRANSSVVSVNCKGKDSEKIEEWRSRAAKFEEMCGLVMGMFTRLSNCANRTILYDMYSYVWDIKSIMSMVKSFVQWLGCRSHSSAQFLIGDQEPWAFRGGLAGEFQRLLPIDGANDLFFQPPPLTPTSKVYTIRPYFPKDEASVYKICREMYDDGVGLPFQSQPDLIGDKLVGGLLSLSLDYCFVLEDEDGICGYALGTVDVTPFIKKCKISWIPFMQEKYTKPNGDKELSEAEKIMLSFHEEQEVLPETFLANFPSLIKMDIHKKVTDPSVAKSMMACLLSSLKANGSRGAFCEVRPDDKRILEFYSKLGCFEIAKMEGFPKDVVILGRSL
# EXPERIMENT NOTES: OGA Enzyme Inhibition Biochemical Assay
# CONDITION CONTEXT: 1 nM OGA, 100 μM 4-MUGlcNAc, pH 6.4
IC50 overview

Solved cases (5 shown):
INSERT INTO assay_data (compound, assay_metric, readout_value) VALUES
  ('COc1cc(O[C@H]2C[C@@H](C)N(Cc3sc(NC(C)=O)nc3F)C2)ncn1', 'IC50', '2900 nM'),
  ('COc1cc(O[C@@H]2C[C@H](C)N(Cc3cnc(NC(C)=O)s3)C2)ncn1', 'IC50', '< 1 nM'),
  ('CC(=O)Nc1nc(F)c(CN2C[C@H](Oc3cnc(C)cn3)C[C@@H]2C)s1', 'IC50', '< 1 nM'),
  ('CC(=O)Nc1ncc(CN2C[C@H](Oc3cc(N4CCOCC4)ncn3)C[C@@H]2C)s1', 'IC50', '< 1 nM'),
  ('COc1ccc(O[C@@H]2C[C@H](C)N(Cc3sc(NC(C)=O)nc3F)C2)nc1', 'IC50', '< 1 nM');

Any idea what its IC50 is? The compound is `CC(=O)Nc1nc(F)c(CN2C[C@H](Oc3cc(Cl)ccn3)C[C@@H]2C)s1` < 1 nM

Field entry: `CCN(C)c1cc(O[C@@H]2C[C@H](C)N(Cc3cnc(NC(C)=O)s3)C2)ncn1` < 1 nM

Field entry: `COc1ccnc(O[C@@H]2C[C@H](C)N(Cc3sc(NC(C)=O)nc3F)C2)n1` < 1 nM

Field entry: `CC(=O)Nc1ncc(CN2CCC[C@H](Oc3cc(C)nc(C)c3)C2)s1` 23 nM

Field entry: [2H]c1nc(NC(C)=O)sc1CN1C[C@H](Oc2cc(OC)ncn2)C[C@@H]1C (single isomer, unassigned) < 1 nM
